Tested on: RXF 393
Assay info: NCI tumour cell line growth inhibition, 48 h
Calls of active or inactive are those of the source. Cut-off read from the data, not from the text of the source: active = GI50 up to about 1.1 µM and inactive = higher.

Compound: CCOC(=O)Nc1sc2c(c1C#N)CCCC2
GI50: > 100 µM (inactive)
//
Compound: C[n+]1c2ccccc2c(CNC(CCC(N)=O)C(=O)O)c2ccccc21 (stereo not given)
GI50: 1.99 µM (inactive)
//
Compound: COc1cc(C(CN)N(C)C)cc(OC)c1OC (stereo not given)
GI50: > 100 µM (inactive)
//
Compound: CC1C(O)[C@@]2(OC[C@@]34C(=O)CC5(O)[C@H](CCC6Cc7nc8c(nc7C[C@]65C)CC5CC[C@@H]6C7=C[C@H]9O[C@@]%10(O[C@@](C)(CO)C[C@@H]%10O)C(C)[C@@]9(O)[C@]7(C)[C@@H](O)CC6[C@]5(C)C8)C3=CC[C@H]4C2C)OC1(C)C (stereo not given in full)
GI50: < 0.000355 µM (active)
//
Compound: Cc1cc2c(=O)c(C)n[nH]c2c(C#N)c1C
GI50: > 100 µM (inactive)

----------
Tested on: BT-549
Assay info: NCI tumour cell line growth inhibition, 48 h
The source made the active and inactive calls. Rule as the data show it: active = GI50 up to about 1.1 µM and inactive = higher.
Recorded GI50 by entry
Assay metric: GI50

Compound: CSc1nc(SC)c2c(CN=[N+]=[N-])c(Br)n(Cc3ccccc3)c2n1
System: BT-549
Assay metric: GI50
Data value: > 100 µM (inactive)
--
Compound: CC(=O)N[C@@H](Cc1ccc(O)cn1)C(=O)NCc1ccc(Cl)cc1
System: BT-549
Assay metric: GI50
Data value: > 100 µM (inactive)
--
Compound: CC(=O)C1=CC=C/C1=N\Nc1ccccc1
System: BT-549
Assay metric: GI50
Data value: 11 µM (inactive)
--
Compound: COc1cccc(C2c3cc4c(cc3OC(N3CCCCC3)C2C)OCO4)c1OC (centres undefined)
System: BT-549
Assay metric: GI50
Data value: 9.06 µM (inactive)

----------
Target or system HCT-15: recorded GI50 listed per item.

Compound: COc1ccc(NC(=O)CC/C(CC(=O)C(C)(C)C)=N\NC(=O)C(N)=O)cc1
GI50: > 100 µM

Compound: COC(=O)CC(NC(=O)OCc1ccccc1)C(C(C)=O)C(=O)OCc1ccccc1 (configuration not stated)
GI50: > 31.6 µM

Compound: COc1cc(/C=C/C(=O)N[C@@H]2C(=O)N3[C@@H]2SC(C)(C)[C@@H]3C(=O)O)ccc1O
GI50: > 100 µM

Compound: COC(=O)CC1NC(=O)[C@@H]1C(C)O (some centres not stated)
GI50: > 100 µM

Compound: CN(C)/C(=N/C(=O)Nc1ccccc1)SCc1ccccc1
GI50: > 100 µM

Compound: O=C(CN1CCN(c2ccccn2)CC1)N1CCCn2c1nc1ccccc1c2=O
GI50: > 100 µM

Compound: Cc1ccc2c(O)cc(-c3csc4ccccc34)nc2n1
GI50: < 0.0151 µM
